- target-system: UniProt Q06418
pIC50: −log10 of the molar value.
observation-type: pIC50

Some compounds with recorded pIC50:
{"mol": "Cc1c(-c2ncccn2)cc(C(=O)Nc2ccc(-c3cc(C4CCN(C)CC4)n4ncnc(N)c34)cc2)c(=O)n1-c1ccccc1", "target-system": "UniProt Q06418", "value-measured": "8.00 to 8.30"}
{"mol": "Cc1c(-c2ncco2)cc(C(=O)Nc2ccc(-c3cc(C4CCN(C(=O)C(C)C)CC4)n4ncnc(N)c34)cc2)c(=O)n1-c1ccccn1", "target-system": "UniProt Q06418", "value-measured": "< 7.00"}
{"mol": "Cc1c(-c2cnn(C)c2)cc(C(=O)Nc2ccc(-c3cc(C4CCN(C(=O)C(C)C)CC4)n4ncnc(N)c34)cc2)c(=O)n1-c1ccccc1", "target-system": "UniProt Q06418", "value-measured": "< 7.00"}
{"mol": "CC(C)C(=O)N1CCC(c2cc(-c3ccc(NC(=O)c4cn(C(C)C)c(=O)n(-c5ncccn5)c4=O)cc3)c3c(N)ncnn23)CC1", "target-system": "UniProt Q06418", "value-measured": "< 7.00"}
{"mol": "CN(C)C(=O)N1CCC(c2cc(-c3ccc(NC(=O)c4cccn(-c5ccc(F)cc5)c4=O)cc3)c3c(N)ncnn23)CC1", "target-system": "UniProt Q06418", "value-measured": "7.00 to 8.00"}

Turning now to a further compound:
Prompt line: Looking for the measured pIC50 of Cc1cc(-c2ccc(NC(=O)c3cccn(-c4ccc(F)cc4)c3=O)cc2F)c2c(N)ncnn12 , can you help?
Response line: < 7.00

* * *

- target-system: phosphor-Axl (Homo sapiens (Human), UniProt P30530)
- Sequence (P30530 26-894): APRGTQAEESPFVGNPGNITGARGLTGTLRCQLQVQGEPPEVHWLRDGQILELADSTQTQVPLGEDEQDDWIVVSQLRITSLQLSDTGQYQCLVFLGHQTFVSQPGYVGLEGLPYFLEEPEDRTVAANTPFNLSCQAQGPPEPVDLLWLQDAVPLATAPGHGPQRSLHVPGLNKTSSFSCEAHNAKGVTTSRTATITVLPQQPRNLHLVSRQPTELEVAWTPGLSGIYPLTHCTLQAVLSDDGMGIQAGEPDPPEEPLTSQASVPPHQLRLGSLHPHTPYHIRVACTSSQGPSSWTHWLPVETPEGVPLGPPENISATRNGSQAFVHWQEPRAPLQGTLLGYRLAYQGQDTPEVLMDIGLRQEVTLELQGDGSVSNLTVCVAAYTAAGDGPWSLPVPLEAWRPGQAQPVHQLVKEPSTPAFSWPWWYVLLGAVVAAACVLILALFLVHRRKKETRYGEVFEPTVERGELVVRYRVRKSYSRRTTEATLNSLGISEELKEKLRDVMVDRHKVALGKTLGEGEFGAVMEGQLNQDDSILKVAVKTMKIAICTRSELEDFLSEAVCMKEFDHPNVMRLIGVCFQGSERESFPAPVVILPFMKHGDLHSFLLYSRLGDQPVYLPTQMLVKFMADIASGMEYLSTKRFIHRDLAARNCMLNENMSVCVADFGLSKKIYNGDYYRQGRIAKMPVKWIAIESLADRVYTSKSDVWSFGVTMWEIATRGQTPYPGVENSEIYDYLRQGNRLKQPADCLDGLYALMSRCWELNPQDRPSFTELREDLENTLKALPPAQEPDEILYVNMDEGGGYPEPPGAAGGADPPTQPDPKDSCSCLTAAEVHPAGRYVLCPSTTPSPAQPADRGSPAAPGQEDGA
- experiment-summary: TAM Enzymatic Assay (HTRF), Axl
- conditions: recombinant autophosphorylated Axl, 60 min, room temperature
observation-type: IC50

Some molecules with recorded IC50:
{"mol": "Nc1ncnn2c(C3CCNCC3)cc(-c3ccc(NC(=O)c4cccn(-c5ccccc5)c4=O)cc3)c12", "observation-type": "IC50", "value-measured": "≤ 5 nM"}
{"mol": "CS(=O)(=O)N1CCC(c2cc(-c3ccc(NC(=O)c4cccn(-c5ccc(F)cc5)c4=O)cc3F)c3c(N)ncnn23)CC1", "observation-type": "IC50", "value-measured": "≤ 5 nM"}
{"mol": "Nc1ncnn2c1c(-c1ccc(NC(=O)c3cccn(-c4ccccc4)c3=O)cc1F)cc2[C@H]1CC[C@@H](O)CC1", "observation-type": "IC50", "value-measured": "≤ 5 nM"}

I have 3 molecules here; please give me IC50 for each one.
1. CC(C)C(=O)N1CCC(c2cc(-c3ccc(NC(=O)c4cn(C(C)C)c(=O)n(-c5cnn(C)c5)c4=O)cc3)c3c(N)ncnn23)CC1
2. Cc1c(Cl)cc(C(=O)Nc2ccc(-c3cc(C4CCN(C(=O)C(C)C)CC4)n4ncnc(N)c34)cc2)c(=O)n1-c1cccnc1
3. CC(C)C(=O)N1CCC(c2cc(-c3ccc(NC(=O)c4cn(C(C)C)cc(-c5cccnc5)c4=O)cc3)c3c(N)ncnn23)CC1

Response line:
≤ 5 nM
≤ 5 nM
≤ 5 nM

I have 6 molecules here; please give me IC50 for each one.
1. CC(C)C(=O)N1CCC(c2cc(-c3ccc(NC(=O)c4cn(C5CC5)c(=O)n(-c5ccccc5)c4=O)cc3)c3c(N)ncnn23)CC1
2. Cc1c(-c2cccc(C#N)c2)c(=O)c(C(=O)Nc2ccc(-c3cc(C4CCN(C(=O)C(C)C)CC4)n4ncnc(N)c34)cc2)cn1C(C)C
3. Cc1cc(C(=O)N(C)C)ncc1-c1cc(-c2ccc(NC(=O)c3cn(C(C)C)c(=O)n(-c4ccccc4)c3=O)cc2)c2c(N)ncnn12
4. Cc1cccc(-n2c(=O)c(C(=O)Nc3ccc(-c4cc(C5CCN(C(=O)C(C)C)CC5)n5ncnc(N)c45)cc3)cn(C(C)C)c2=O)n1
5. CC(=O)N1CCC(c2cc(-c3ccc(NC(=O)c4cccn(-c5ccccc5)c4=O)cc3)c3c(N)ncnn23)CC1
6. CCn1cc(C(=O)Nc2ccc(-c3cc(C4CCN(C(=O)[C@@H](C)O)CC4)n4ncnc(N)c34)cc2)c(=O)n(-c2ccc(F)cc2)c1=O

Response line:
1. ≤ 5 nM
2. ≤ 5 nM
3. ≤ 5 nM
4. ≤ 5 nM
5. ≤ 5 nM
6. ≤ 5 nM

* * *

- target-system: c-Mer (Homo sapiens (Human))
- Sequence (Q12866 21-999): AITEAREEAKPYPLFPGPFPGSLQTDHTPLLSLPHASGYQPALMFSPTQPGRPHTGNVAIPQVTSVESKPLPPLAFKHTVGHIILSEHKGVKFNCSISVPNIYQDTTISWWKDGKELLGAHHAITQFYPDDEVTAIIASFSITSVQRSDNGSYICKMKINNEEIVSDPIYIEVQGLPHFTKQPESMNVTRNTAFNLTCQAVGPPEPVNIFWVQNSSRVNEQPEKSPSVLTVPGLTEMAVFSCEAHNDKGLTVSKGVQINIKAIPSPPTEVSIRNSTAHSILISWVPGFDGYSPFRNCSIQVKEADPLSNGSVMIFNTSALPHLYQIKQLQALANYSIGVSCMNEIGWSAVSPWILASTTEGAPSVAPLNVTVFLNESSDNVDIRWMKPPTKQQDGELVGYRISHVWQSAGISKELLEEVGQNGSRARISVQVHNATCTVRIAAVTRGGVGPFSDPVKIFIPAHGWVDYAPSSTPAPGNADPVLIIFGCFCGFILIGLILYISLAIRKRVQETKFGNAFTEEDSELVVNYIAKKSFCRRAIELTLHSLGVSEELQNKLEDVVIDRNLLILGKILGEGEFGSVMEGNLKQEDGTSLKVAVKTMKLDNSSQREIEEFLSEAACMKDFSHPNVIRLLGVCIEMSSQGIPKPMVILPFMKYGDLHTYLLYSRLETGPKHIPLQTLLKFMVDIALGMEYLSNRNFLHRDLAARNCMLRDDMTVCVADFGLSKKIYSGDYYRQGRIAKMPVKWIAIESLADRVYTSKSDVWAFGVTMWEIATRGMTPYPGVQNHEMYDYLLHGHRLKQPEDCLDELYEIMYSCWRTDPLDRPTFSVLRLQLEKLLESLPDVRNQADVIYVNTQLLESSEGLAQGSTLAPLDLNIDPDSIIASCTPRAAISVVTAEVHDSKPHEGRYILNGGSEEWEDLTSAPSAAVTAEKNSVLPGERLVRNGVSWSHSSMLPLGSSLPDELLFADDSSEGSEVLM
observation-type: IC50

Some compounds with recorded IC50:
{"mol": "CC(C)C(=O)N1CCC(c2cc(-c3ccc(NC(=O)c4cc5c(n(-c6ccccc6)c4=O)CCCC5=O)cc3)c3c(N)ncnn23)CC1", "IC50": "≤ 5 nM"}
{"mol": "Cc1cc(C(=O)Nc2ccc(-c3cc(C4CCN(C(=O)C(C)C)CC4)n4ncnc(N)c34)cc2)c(=O)n(-c2ccccc2)c1-c1cccnc1", "IC50": "≤ 5 nM"}
{"mol": "CCn1cc(C(=O)Nc2ccc(-c3cc(C4CCN(C(=O)N(C)C)CC4)n4ncnc(N)c34)cc2)c(=O)n(-c2ccc(F)cc2)c1=O", "IC50": "≤ 5 nM"}
{"mol": "Nc1ncnn2c1c(-c1ccc(NC(=O)c3cccn(-c4ccc(F)cc4)c3=O)cc1F)cc2[C@H]1CC[C@@H](O)CC1", "IC50": "≤ 5 nM"}
{"mol": "Cc1c(-c2cccnc2)c(=O)c(C(=O)Nc2ccc(-c3cc(C4CCN(C(=O)C(C)C)CC4)n4ncnc(N)c34)cc2)cn1C1CC1", "IC50": "≤ 5 nM"}

Turning now to a further compound:
Prompt line: Identify the measured IC50 of CCc1cc(-c2ccc(NC(=O)c3cccn([C@H](CC)CO)c3=O)cc2)c2c(N)ncnn12 for c-Mer (Homo sapiens (Human)).
Response line: > 100 nM

* * *

- target-system: Tyro3 (Homo sapiens (Human))
- Sequence (Q06418 41-890): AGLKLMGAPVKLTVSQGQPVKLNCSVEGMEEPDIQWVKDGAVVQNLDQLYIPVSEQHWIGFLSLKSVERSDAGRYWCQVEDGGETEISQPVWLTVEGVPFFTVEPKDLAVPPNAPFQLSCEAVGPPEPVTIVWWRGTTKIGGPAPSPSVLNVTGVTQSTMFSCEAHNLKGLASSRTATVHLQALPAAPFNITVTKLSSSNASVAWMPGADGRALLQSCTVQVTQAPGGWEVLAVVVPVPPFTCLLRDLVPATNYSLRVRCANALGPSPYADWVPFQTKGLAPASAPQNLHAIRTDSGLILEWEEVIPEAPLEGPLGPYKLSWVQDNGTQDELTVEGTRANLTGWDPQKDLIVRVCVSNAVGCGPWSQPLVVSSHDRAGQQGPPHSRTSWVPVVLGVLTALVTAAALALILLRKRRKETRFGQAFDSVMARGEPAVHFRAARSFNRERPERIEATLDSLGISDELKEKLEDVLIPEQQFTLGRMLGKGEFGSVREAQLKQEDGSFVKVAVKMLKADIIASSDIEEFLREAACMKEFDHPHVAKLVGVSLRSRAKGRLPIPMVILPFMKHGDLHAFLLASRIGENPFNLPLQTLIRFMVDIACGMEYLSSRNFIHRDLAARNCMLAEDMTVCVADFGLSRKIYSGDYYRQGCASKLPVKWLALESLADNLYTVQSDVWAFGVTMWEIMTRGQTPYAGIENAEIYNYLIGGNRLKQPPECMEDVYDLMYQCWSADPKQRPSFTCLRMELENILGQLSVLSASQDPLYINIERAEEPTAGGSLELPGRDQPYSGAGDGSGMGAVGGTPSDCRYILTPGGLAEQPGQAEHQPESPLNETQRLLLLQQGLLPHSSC
observation-type: IC50

{"mol": "Cc1c(-c2ncco2)c(=O)c(C(=O)Nc2ccc(-c3cc(C4CCN(C(=O)C(C)C)CC4)n4ncnc(N)c34)cc2)cn1C1CC1", "IC50": "> 100 nM"}
{"mol": "N#C[C@H]1CC[C@@H](c2cc(-c3ccc(NC(=O)c4cccn(-c5ccccc5)c4=O)cc3)c3c(N)ncnn32)CC1", "IC50": "> 100 nM"}
{"mol": "Cc1cc(NC(=O)c2cn(C(C)C)c(=O)n(-c3ccccc3)c2=O)ccc1-c1cc(C2CCN(C(=O)C(C)C)CC2)n2ncnc(N)c12", "IC50": "> 100 nM"}

I have 4 compounds here; please give me IC50 for each one.
1. Nc1ncnn2c(C3CCNCC3)cc(-c3ccc(NC(=O)c4cccn(-c5ccccc5)c4=O)cc3F)c12
2. Nc1ncnn2c(C3CCN(CCO)CC3)cc(-c3ccc(NC(=O)c4cccn(-c5ccccc5)c4=O)cc3)c12
3. CCn1cc(C(=O)Nc2ccc(-c3cc(C4CCN(C(=O)N(C)C)CC4)n4ncnc(N)c34)cc2)c(=O)n(-c2cccc(F)c2)c1=O
4. CCc1cc(-c2ccc(NC(=O)c3cccn([C@@H](CO)c4ccccc4)c3=O)cc2)c2c(N)ncnn12

Response line:
1: 10 to 100 nM; 2: 10 to 100 nM; 3: > 100 nM; 4: > 100 nM

This collection of values is drawn from patent US9981975B2.
